Data provenance: patent US20110028686A1

TARGET_OR_SYSTEM: T1, CBP KIX, wild type (Example 20) (UniProt P45481 586-665, limits assumed)
T1 construct: domain: KIX; also called wild type CBP KIX; CBP MX
T1 sequence (P45481 586-665 limits assumed): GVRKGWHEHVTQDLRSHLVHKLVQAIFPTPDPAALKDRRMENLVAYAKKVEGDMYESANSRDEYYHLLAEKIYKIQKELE
MEASUREMENT_PROTOCOL: FP with CBP KIX
Square brackets hold non-standard residues; d marks the D form. Primed or numbered codes have the meaning given here. Ends that are not written are not given here. acetamidofluorescein″ = acetamidofluorescein (5-iodoacetamidofluorescein attached to the C-terminal Cys); pS = N[C@@H](COP(=O)(O)O)C(=O)O
Classify as follows. Reported ΔΔG relative to wild type PPKID4^P greater than or equal to 0.3 kcal/mol: rule met. Reported ΔΔG relative to wild type PPKID4^P below: rule not met.

These solved cases illustrate the format of a correct answer.
>>> assigned_category("GPSQPTYPGDDAPVRRL[pS]FFYILLDLALDAPGVC(acetamidofluorescein″)-NH2 (designed binder) [PPKID4^P Y27A]")
"rule met"
>>> assigned_category("GPSQPTYPGDDAPVRRL[pS]FAYILLDLYLDAPGVC(acetamidofluorescein″)-NH2 (designed binder) [PPKID4^P F20A]")
"rule met"
>>> assigned_category("GPSQPTYAGDDAPVRRL[pS]FFYILLDLYLDAPGVC(acetamidofluorescein″)-NH2 (designed binder) [PPKID4^P P8A]")
"rule met"

Prompt: Dear colleague, could you confirm whether GASQPTYPGDDAPVRRL[pS]FFYILLDLYLDAPGVC(acetamidofluorescein″)-NH2 (designed binder) [PPKID4^P P2A] has ΔΔG relative to wild type PPKID4^P at or above 0.3 kcal/mol?
Response: rule not met
